Hey, just so you know, these numbers are from ChEMBL document CHEMBL4665903.

- Test system: Staphylococcus aureus
- assay.comment: Antibacterial activity against Staphylococcus aureus ATCC 29213 assessed as bacterial growth inhibition and measured every 20 mins for 16 hrs
- Format: functional, organism-based
measured.quantity: IC50 (nM)
# output: bare number, implied unit nM

Examples with answers:
[
  {
    "molecule": "CCNc1cc(F)cc2c1[nH]c1ncc(-c3cncc(C#N)c3)c(N3CC[C@@]4(C[C@H]4N)C3)c12",
    "study.system": "Staphylococcus aureus",
    "recorded.number": 863
  },
  {
    "molecule": "CNc1cc(F)c(F)c2c1[nH]c1ncc(-c3cnc(OC)nc3)c(N3CC[C@@]4(C[C@@H]4N)C3)c12",
    "study.system": "Staphylococcus aureus",
    "recorded.number": 184
  },
  {
    "molecule": "CNc1cc(F)c(F)c2c1[nH]c1ncc(-c3cncc(C#N)c3)c(N3CCCC(F)(CN)C3)c12 (stereo unspecified)",
    "study.system": "Staphylococcus aureus",
    "recorded.number": 477
  },
  {
    "molecule": "CCNc1cc(F)c(F)c2c1[nH]c1ncc(-c3cnc(OC)nc3)c(N3CCC[C@@H](CN)C3)c12",
    "study.system": "Staphylococcus aureus",
    "recorded.number": 394
  },
  {
    "molecule": "CNc1cc(F)c(F)c2c1[nH]c1ncc(-c3cnc4ccnn4c3)c(N3CC[C@H]4CN(C)C[C@H]43)c12",
    "study.system": "Staphylococcus aureus",
    "recorded.number": 369
  }
]

Shift focus to the following entry.
Data request, read-out IC50, for CCNc1cc(F)cc2c1[nH]c1ncc(-c3cncc(C#N)c3)c(N3CCC(F)(CN)C3)c12 (stereo unspecified)
312
